protocol description: Cytotoxicity against african green monkey Vero cells after 24 hrs at 37 degC by MTT assay
Format: cell-based
test parameters: chlorocebus sabaeus, Vero cells; read-out: ID50
Catalogue of CC50 at 24 h readings, one per entry.
metric: CC50 at 24 h (µM)

| molecule | data value |
| --- | --- |
| ClP1(Cl)=NP2(=NP(Sc3ccccc3)(Sc3ccccc3)=N1)NCCCN2CCCCN1CCCNP12=NP(Sc1ccccc1)(Sc1ccccc1)=NP(Cl)(Cl)=N2 (configuration not stated) | 3.35 |
| FC1(F)COP2(=NP(Cl)(Cl)=NP3(=N2)NCCCN3CCCCN2CCCNP23=NP(Cl)(Cl)=NP2(=N3)OCC(F)(F)C(F)(F)CO2)OCC1(F)F (configuration not stated) | 1.31 |
| c1ccc(NP2(Nc3ccccc3)=NP34=NP5(=N2)NCCCN5CCCCN3CCCN4)cc1 (configuration not stated) | 6.55 |
| CC1(C)COP2(=NP34=NP5(=N2)NCCCN5CCCCN3CCCN4)OC1 (configuration not stated) | 5.88 |
| CC1(C)COP2(=NP(Cl)(Cl)=NP3(=N2)NCCCN3CCCCN2CCCNP23=NP2(=NP(Cl)(Cl)=N3)OCC(C)(C)CO2)OC1 (configuration not stated) | 2.65 |
| FC1(F)COP2(=NP34=NP5(=N2)NCCCN5CCCCN3CCCN4)OCC1(F)F (configuration not stated) | 5.41 |
| FC1(F)COP2(Cl)=NP(Cl)(=NP3(=N2)NCCCN3CCCCN2CCCNP23=NP2(Cl)=NP(Cl)(=N3)OCC(F)(F)C(F)(F)CO2)OCC1(F)F (configuration not stated) | 1.61 |

The reported measurements were obtained from ChEMBL document CHEMBL2021912.
